Listed here are binders together with their documented koff.
measured target: T1, Human TNFa N-his trimers (His-tagged TNF, produced at ESBATech) (human, UniProt P01375 77-233)
T1 construct: Captured as trimers on a Ni-NTA sensor chip by the N-terminal His tags in the Biacore assay of the general methods; also called human TNFα; human TNF alpha; not shown: N-terminal His tag
T1 sequence (P01375 77-233 limits assumed): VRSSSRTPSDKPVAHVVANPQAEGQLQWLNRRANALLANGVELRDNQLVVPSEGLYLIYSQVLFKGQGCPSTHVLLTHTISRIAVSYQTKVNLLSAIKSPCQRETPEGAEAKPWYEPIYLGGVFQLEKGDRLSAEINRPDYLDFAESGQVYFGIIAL
assay comment: SPR (BIAcore T100), His-tagged human TNF captured on NTA chip, scFv as analyte
property name: koff (s⁻¹)

# binder, property name, observed
records = [
    ("EP35_max (scFv, scFv NH2-VL-(GGGGS)4-VH-COOH; also called 1089) scFv: EIVMTQSPSTLSASVGDRVIITCQASQSISNLLAWYQQKPGKAPKLLIVAASKLASGVPSRFSGSGSGTEFTLTISSLQPDDFATYYCQQGWSHTNVDNTFGQGTKLTVLGGGGGSGGGGSGGGGSGGGGSEVQLVESGGGSVQPGGSLRLSCTASGFSFSVGYWICWVRQAPGKGLEWVACIDAGTSGGTYYATWAKGRFTISKDTSKNTVYLQMNSLRAEDTATYYCARGVSSNGYYFKLWGQGTTVTVSS", "koff", 0.00015),
    ("EP6_max (scFv, scFv NH2-VL-(GGGGS)4-VH-COOH; also called 674) scFv: EIVMTQSPSTLSASVGDRVIITCQASESIYSGLAWYQQKPGKAPKLLIYQASTLASGVPSRFSGSGSGTDFTLAISSLQPDDFATYYCQQGFGTSNVENPFGQGTKLTVLGGGGGSGGGGSGGGGSGGGGSEVQLVESGGGLVQPGGSLRLSCTVSGFSLSRYGVSWVRQAPGKGLEWVGTIGEAGRAYYANWARSRSTISRDTSKNTVYLQMNSLRAEDTAVYYCARGEVFNNGWGAFNIWGQGTLVTVSS", "koff", 0.000145),
    ("EP19_max (scFv, also called 1007; EP19maxmod) scFv: EIVMTQSPSTLSASVGDRVIITCQASDNIYRGLAWYQQKPGKAPKLLIYDASTLQSGVPSRFSGSGSGTQFTLTISSLQPDDFATYYCLGVYGYSSDDGAAFGQGTKLTVLGGGGGSGGGGSGGGGSGGGGSEVQLVESGGGLVQPGGSLRLSCTVSGFSLNSNEISWVRQAPGKGLEWVGYIGNGGMTHYASWAKGRFTISRDTSKNTVYLQMNSLRAEDTAVYYCASSVEYTDLYYLNIWGQGTLVTVSS", "koff", "6.54e-05"),
]
